# method: Cmax in mouse at 2 mg/kg, po
# Type: ADME, organism-based
# Set-up: dose 2 mg/kg, route po
# measurement_conditions: in vivo

>  <compound>
CCS(=O)(=O)c1ccc(CNC(=O)c2ccc3c(c2)cc(Cc2ccc(Cl)cc2C(F)(F)F)n3CCF)cc1

>  <Cmax>
3270 ng/mL

$$$$
>  <compound>
CCS(=O)(=O)c1ccc([C@H](CO)NC(=O)c2ccc3c(c2)cc(Cc2ccc(Cl)cc2C(F)(F)F)n3CCF)cc1

>  <Cmax>
3660 ng/mL

$$$$

###

# method: Oral bioavailability in dog
# Format: ADME, organism-based, Canis lupus familiaris
# measurement_conditions: in vivo

>  <compound>
CCS(=O)(=O)c1ccc([C@H](CO)NC(=O)c2ccc3c(c2)cc(Cc2ccc(Cl)cc2C(F)(F)F)n3CCF)cc1

>  <bioavailability (%)>
84.2

$$$$
>  <compound>
CCS(=O)(=O)c1ccc(CNC(=O)c2ccc3c(c2)cc(Cc2ccc(Cl)cc2C(F)(F)F)n3CCF)cc1

>  <bioavailability (%)>
8.33

$$$$

###

# method: Drug exposure in plasma of C57BL/6 mouse injected with mouse MC38 cells at 10 mg/kg, po measured 3 hrs post dose on day 25 in combination with anti-mouse PD1 monoclonal antibody at 5 mg/kg, ip by LC/MS analysis
# Assay type: ADME, organism-based, MC-38
# measurement_conditions: time 25 day

>  <compound>
CCS(=O)(=O)c1ccc([C@H](CO)NC(=O)c2ccc3c(c2)cc(Cc2ccc(Cl)cc2C(F)(F)F)n3CCF)cc1

>  <concentration at 600 h, ng/mL>
10800

$$$$

###

# method: Half life in mouse at 2 mg/kg, po
# Type: ADME, organism-based
# measurement_conditions: in vivo
Collected half-life values appear next to each entry.

>  <compound>
CCS(=O)(=O)c1ccc([C@H](CO)NC(=O)c2ccc3c(c2)cc(Cc2ccc(Cl)cc2C(F)(F)F)n3CCF)cc1

>  <half-life>
11.2 h

$$$$
>  <compound>
CCS(=O)(=O)c1ccc(CNC(=O)c2ccc3c(c2)cc(Cc2ccc(Cl)cc2C(F)(F)F)n3CCF)cc1

>  <half-life>
3.72 h

$$$$

###

# study_system: UniProt:P51449
# method: Partial agonist activity at human RORgamma in cytostim stimulated human PBMC cells assessed as […] in differentiation of TH17 cells by measuring IL-17 production preincubated with cytostim for 72 hrs by ELISA
# Type: cell-based
value_kind: EC50 (nM)

>  <compound>
CCc1ccccc1Cc1cc2cc(C(=O)NCc3ccc(S(=O)(=O)CC)cc3)ccc2n1C(C)C

>  <study_system>
UniProt:P51449

>  <value_units>
nM

>  <measured>
2

$$$$

###

// Cmax lookup, one value per entry
# method: Cmax in rat at 2 mg/kg, po
# Assay type: ADME, organism-based
# Set-up: dose 2 mg/kg, route po
# measurement_conditions: in vivo

>  <compound>
CCS(=O)(=O)c1ccc([C@H](CO)NC(=O)c2ccc3c(c2)cc(Cc2ccc(Cl)cc2C(F)(F)F)n3CCF)cc1

>  <Cmax, ng/mL>
55.7

$$$$
>  <compound>
CCS(=O)(=O)c1ccc(CNC(=O)c2ccc3c(c2)cc(Cc2ccc(Cl)cc2C(F)(F)F)n3CCF)cc1

>  <Cmax, ng/mL>
6.4

$$$$

###

# bioavailability per record follows
# method: Oral bioavailability in rat
# Assay type: ADME, organism-based
# measurement_conditions: in vivo

>  <compound>
CCS(=O)(=O)c1ccc([C@H](CO)NC(=O)c2ccc3c(c2)cc(Cc2ccc(Cl)cc2C(F)(F)F)n3CCF)cc1

>  <bioavailability, %>
29.4

$$$$
>  <compound>
CCS(=O)(=O)c1ccc(CNC(=O)c2ccc3c(c2)cc(Cc2ccc(Cl)cc2C(F)(F)F)n3CCF)cc1

>  <bioavailability, %>
0.673

$$$$

###

# method: AUC (0 to t) in dog at 0.5 mg/kg, iv
# Type: ADME, organism-based, Canis lupus familiaris
# Set-up: dose 0.5 mg/kg, route iv
# measurement_conditions: in vivo
Reported values of AUC(0-t) for individual entries
value_kind: AUC(0-t) (ng·h/mL)

>  <compound>
CCS(=O)(=O)c1ccc(CNC(=O)c2ccc3c(c2)cc(Cc2ccc(Cl)cc2C(F)(F)F)n3CCF)cc1

>  <measured>
309

$$$$
>  <compound>
CCS(=O)(=O)c1ccc([C@H](CO)NC(=O)c2ccc3c(c2)cc(Cc2ccc(Cl)cc2C(F)(F)F)n3CCF)cc1

>  <measured>
8640

$$$$

###

# study_system: Nuclear receptor ROR-gamma (Homo sapiens, UniProt P51449)
# Sequence (P51449 whole entry): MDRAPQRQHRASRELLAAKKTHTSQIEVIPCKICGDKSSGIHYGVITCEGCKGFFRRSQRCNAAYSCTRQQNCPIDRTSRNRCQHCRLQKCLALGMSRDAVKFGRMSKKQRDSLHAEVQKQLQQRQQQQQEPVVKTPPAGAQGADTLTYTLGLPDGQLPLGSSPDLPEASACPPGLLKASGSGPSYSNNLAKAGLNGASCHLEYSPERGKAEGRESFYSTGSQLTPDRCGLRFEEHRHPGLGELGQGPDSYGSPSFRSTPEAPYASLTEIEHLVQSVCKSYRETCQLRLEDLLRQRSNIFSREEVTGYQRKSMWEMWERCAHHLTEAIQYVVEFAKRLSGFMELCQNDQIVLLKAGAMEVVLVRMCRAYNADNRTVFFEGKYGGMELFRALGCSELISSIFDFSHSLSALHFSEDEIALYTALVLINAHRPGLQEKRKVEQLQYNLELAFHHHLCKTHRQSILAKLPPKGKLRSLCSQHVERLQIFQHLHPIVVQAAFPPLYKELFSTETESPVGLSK
# method: Antagonist activity at human RORgamma in cytostim stimulated human PBMC cells assessed as decrease in differentiation of TH17 cells by measuring IL-17 production preincubated with cytostim for 72 hrs by ELISA
# Type: cell-based

>  <compound>
CCS(=O)(=O)c1ccc(CNC(=O)c2ccc3c(c2)cc(Cc2cccc(C(F)(F)F)c2)n3C(C)C)cc1

>  <study_system>
Nuclear receptor ROR-gamma (Homo sapiens, UniProt P51449)

>  <EC50>
19 nM

$$$$
>  <compound>
CCS(=O)(=O)c1ccc(CNC(=O)c2ccc3c(c2)cc(Cc2ccc(C(F)(F)F)cc2)n3C(C)C)cc1

>  <study_system>
Nuclear receptor ROR-gamma (Homo sapiens, UniProt P51449)

>  <EC50>
109 nM

$$$$

###

# method: AUC (0 to t) in dog at 2 mg/kg, po
# Type: ADME, organism-based, Canis lupus familiaris
# Design: dose 2 mg/kg, route po
# measurement_conditions: in vivo
Let's look at some molecules and their measured AUC(0-t).
value_kind: AUC(0-t) (µg·h/mL)

>  <compound>
CCS(=O)(=O)c1ccc([C@H](CO)NC(=O)c2ccc3c(c2)cc(Cc2ccc(Cl)cc2C(F)(F)F)n3CCF)cc1

>  <measured>
29.1

$$$$
>  <compound>
CCS(=O)(=O)c1ccc(CNC(=O)c2ccc3c(c2)cc(Cc2ccc(Cl)cc2C(F)(F)F)n3CCF)cc1

>  <measured>
0.103

$$$$

###

# method: Microsomal stability in human liver microsomes assessed as half life
# Format: ADME, Microsome

>  <compound>
CCS(=O)(=O)c1ccc(CNC(=O)c2ccc3c(c2)cc(Cc2ccccc2OC)n3C(C)C)cc1

>  <half-life [min]>
13

$$$$
>  <compound>
CCc1ccccc1Cc1cc2cc(C(=O)NCc3ccc(S(=O)(=O)CC)cc3)ccc2n1C(C)C

>  <half-life [min]>
13

$$$$
>  <compound>
CCS(=O)(=O)c1ccc(CNC(=O)c2ccc3c(c2)cc(Cc2ccc(Cl)cc2C(F)(F)F)n3CCF)cc1

>  <half-life [min]>
173

$$$$
>  <compound>
CCS(=O)(=O)c1ccc(CNC(=O)c2ccc3c(c2)cc(Cc2ccccc2Br)n3C(C)C)cc1

>  <half-life [min]>
15

$$$$
>  <compound>
CCS(=O)(=O)c1ccc(CNC(=O)c2ccc3c(c2)cc(Cc2ccc(Cl)cc2C(F)(F)F)n3C(C)C)cc1

>  <half-life [min]>
182

$$$$
>  <compound>
CCS(=O)(=O)c1ccc(CNC(=O)c2ccc3c(c2)cc(Cc2ccc(F)cc2C(F)(F)F)n3C(C)C)cc1

>  <half-life [min]>
72

$$$$
>  <compound>
CCS(=O)(=O)c1ccc(CNC(=O)c2ccc3c(c2)cc(Cc2ccccc2C(F)(F)F)n3C(C)C)cc1

>  <half-life [min]>
39

$$$$
>  <compound>
CCS(=O)(=O)c1ccc(CNC(=O)c2ccc3c(c2)cc(Cc2cccc(C(F)(F)F)c2)n3C(C)C)cc1

>  <half-life [min]>
20

$$$$
>  <compound>
CCS(=O)(=O)c1ccc(CNC(=O)c2ccc3c(c2)cc(Cc2ccc(Cl)cc2C(F)(F)F)n3C2CC2)cc1

>  <half-life [min]>
139

$$$$
